Taken from patent US20250320205A1.

// reported Emax per item
- target_under_test: STAT6 (Homo sapiens, UniProt P42226)
- Construct: These cells express endogenous STAT6; host or cells: HeLa LgBiT clone 4.14 (CRISPR knock-in of HiBiT into the endogenous STAT6 gene)
- Sequence (P42226 whole entry): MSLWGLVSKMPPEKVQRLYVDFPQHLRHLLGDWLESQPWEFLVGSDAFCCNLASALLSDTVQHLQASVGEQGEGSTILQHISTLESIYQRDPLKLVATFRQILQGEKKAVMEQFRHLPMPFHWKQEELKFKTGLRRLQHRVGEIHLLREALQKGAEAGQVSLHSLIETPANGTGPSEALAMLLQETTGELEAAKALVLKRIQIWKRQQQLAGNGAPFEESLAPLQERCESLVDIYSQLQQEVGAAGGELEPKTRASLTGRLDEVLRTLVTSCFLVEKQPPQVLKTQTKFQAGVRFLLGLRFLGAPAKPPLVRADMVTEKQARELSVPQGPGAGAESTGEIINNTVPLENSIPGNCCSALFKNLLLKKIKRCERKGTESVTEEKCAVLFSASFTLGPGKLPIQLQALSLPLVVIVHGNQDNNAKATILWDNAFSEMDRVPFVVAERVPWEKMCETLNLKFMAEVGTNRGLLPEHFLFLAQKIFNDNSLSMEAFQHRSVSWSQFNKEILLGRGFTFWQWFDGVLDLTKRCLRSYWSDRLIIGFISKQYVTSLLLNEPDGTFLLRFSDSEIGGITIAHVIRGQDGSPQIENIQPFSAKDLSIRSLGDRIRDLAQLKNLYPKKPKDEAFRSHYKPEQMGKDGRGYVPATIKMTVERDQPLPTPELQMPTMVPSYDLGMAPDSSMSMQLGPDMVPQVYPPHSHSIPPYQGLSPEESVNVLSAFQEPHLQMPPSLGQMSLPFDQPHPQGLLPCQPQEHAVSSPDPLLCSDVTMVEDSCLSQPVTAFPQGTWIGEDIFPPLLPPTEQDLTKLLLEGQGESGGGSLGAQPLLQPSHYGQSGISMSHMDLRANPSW
- method_description: STAT6 Degrader Assay (HiBiT based, HeLa LgBiT clone 4.14 cells)
- Type: cell-based
- condition_set: HeLa; maximal STAT6 degradation

molecule	Emax
CNc1ccn(-c2ccnc3c2cc(CN2CC=C(c4c(C)cc(C(=O)N5CCC(CN6CCN(c7ccc(N[C@@H]8CCC(=O)NC8=O)cc7F)CC6)CC5)cc4F)CC2)n3C)c(=O)c1 (single isomer, unassigned)	70 to 80%
CNc1ccn(-c2ccnc3c2cc([C@H](C)N2CCC(c4ccc(C(=O)N5CCC(CN6CCN(c7ccc(NC8CCC(=O)NC8=O)cc7F)CC6)CC5)cc4)CC2)n3C)c(=O)c1 (stereo partly shown)	70 to 80%
CNc1ccn(-c2ccnc3c2cc(CN2CCC(c4c(C)cc(C(=O)N5CCC(CN6CCN(c7ccc(NC8CCC(=O)NC8=O)cc7F)CC6)CC5)cc4F)CC2)n3C)c(=O)c1 (stereo not shown)	< 20%
CNc1ccn(-c2ccnc3c2cc([C@H](C)N2CC=C(c4c(C)cc(C(=O)N5CCC(CN6CCN(c7ncc(NC8CCC(=O)NC8=O)cc7F)CC6)CC5)cc4F)CC2)n3C)c(=O)c1 (stereo partly shown)	20 to 30%

* * *

// reported pEC50 per item
- Tested on: Eotaxin-3 (CCL26) release
- method_description: Human Whole Blood Eotaxin-3 Assay (IL-4 stimulated)
- Type: cell-based
- condition_set: Homo sapiens; geometric mean across assay runs and compound batches; EC50 provided for test compounds with >80% Emax
- Description: This was a human whole blood assay using recombinant human Interleukin 4 to stimulate the blood and measuring the ability of the test compounds to inhibit eotaxin-3 release. The biological activities of the test compounds have been tested in human whole blood stimulated with IL-4 measuring Eotaxin-3 release. The test compounds were added to 384 well clear flat-bottom plate in a 4-fold serial dilution in triplicates using a liquid handler. […]
pEC50: −log10 of the molar value.
test_readout: pEC50

compound	reported_measurement
Cc1cc(C(=O)N2CCC(CN3CCN(c4ccc(NC5CCC(=O)NC5=O)cc4F)CC3)CC2)cc(F)c1C1=CCN([C@@H](C)c2cc3c(-n4cc(F)c5c(c4=O)CCN5)ccnc3n2C)CC1 (stereo partly drawn) [Example 2g31]	6.57
CNc1nc(=O)n(-c2ccnc3c2cc(CN2CCC(c4c(F)cc(C(=O)N5CCn6nc(CN7CCC(c8ccc(NC9CCC(=O)NC9=O)c(OC)c8)CC7)cc6C5)cc4F)CC2)n3C)cc1F (stereo not drawn) [Example 2c50]	7.73
C[C@@H](c1cc2c(-n3ccc4c(c3=O)CCN4)ccnc2n1C)N1CCC(c2ccc(C(=O)N3CCC(CN4CCN(c5ccc(N[C@@H]6CCC(=O)NC6=O)cc5F)CC4)CC3)cc2)CC1 (single isomer, unassigned) [Example 2c35]	7.73
CNc1cc(=O)n(-c2ccnc3c2cc([C@@H](C)N2CC=C(c4c(F)cc(C(=O)N5CCn6nc(CN7CCC(c8ccc(NC9CCC(=O)NC9=O)cc8F)CC7)cc6C5)cc4F)CC2)n3C)cc1F (stereo in doubt) [Example 2g2]	6.92
CNc1cc(=O)n(-c2ccnc3c2cc(CN2CC=C(c4c(F)cc(C(=O)N5CCC(CN6CCN(c7ccc(N[C@H]8CCC(=O)NC8=O)cc7F)CC6)CC5)cc4F)CC2)n3C)cc1F (single isomer, unassigned) [Example 2g66]	6.76
CNc1cc(=O)n(-c2ccnc3c2cc(CN2CCC(c4c(F)cc(C(=O)N5CCn6nc(CN7CCC(c8ccc(N[C@@H]9CCC(=O)NC9=O)c(OC)c8)CC7)cc6C5)cc4F)CC2)n3C)cc1F (single isomer, unassigned) [Example 2g124]	8.24
CNc1ccn(-c2ccnc3c2cc([C@H](C)N2CC=C(c4c(C)cc(C(=O)N5CCC(CN6CCN(Cc7ccc(NC8CCC(=O)NC8=O)c(F)c7)CC6)CC5)cc4F)CC2)n3C)c(=O)c1 (stereo partly drawn) [Example 2g10]	7.72
CNc1ccn(-c2ccnc3c2cc([C@H](C)N2CC=C(c4c(C)cc(C(=O)N5CCn6nc(CN7CCC(c8cc(OC)c(NC9CCC(=O)NC9=O)cc8F)CC7)cc6C5)cc4F)CC2)n3C)c(=O)c1 (stereo partly drawn) [Example 2g128]	9.70
CNc1ccn(-c2ccnc3c2cc([C@H](C)N2CC=C(c4c(C)cc(C(=O)N5CCC(CN6CCN(c7ccc(N[C@H]8CCC(=O)NC8=O)cc7F)C[C@@H]6C)CC5)cc4F)CC2)n3C)c(=O)c1 (single isomer, unassigned) [Example 2g98]	7.78

* * *

- target_under_test: STAT6 (Homo sapiens)
- Construct: These cells express endogenous STAT6; host or cells: HeLa LgBiT clone 4.14 (CRISPR knock-in of HiBiT into the endogenous STAT6 gene)
- method_description: STAT6 Degrader Assay (HiBiT based, HeLa LgBiT clone 4.14 cells)
- Assay type: cell-based
- condition_set: geometric mean across assay runs and compound batches; DC50 provided for test compounds with >80% Emax; read-out: STAT6 degradation DC50
test_readout: DC50 (nM)

compound	unit	reported_measurement
CNc1cc(=O)n(-c2ccnc3c2cc([C@H](C)N2CC=C(c4c(C)cc(C(=O)N5CCn6nc(CN7CCC(c8ccc(NC9CCC(=O)NC9=O)cc8F)CC7)cc6C5)cc4F)CC2)n3C)cc1F (stereo partly shown)	nM	0.5
CNc1ccn(-c2ccnc3c2cc([C@H](C)N2CC=C(c4c(C)cc(C(=O)N5CCC(CN6CCN(c7ccc(N[C@@H]8CCC(=O)NC8=O)c(OC)c7)CC6)CC5)cc4F)CC2)n3C)c(=O)c1 (single isomer, unassigned)	nM	20.8
CNc1cc(=O)n(-c2ccnc3c2cc(CN2CCC(c4c(F)cc(C(=O)N5CCn6nc(CN7CCC(c8ccc(NC9CCC(=O)NC9=O)c(OC)c8)CC7)cc6C5)cc4F)CC2)n3C)cc1F (stereo not shown)	nM	1.8
Cc1cc(C(=O)N2CCC(CN3CCN(c4ccc(N[C@H]5CCC(=O)NC5=O)cc4F)C[C@H]3C)CC2)cc(F)c1C1=CCN([C@@H](C)c2cc3c(-n4ccc5c(c4=O)CCN5)ccnc3n2C)CC1 (single isomer, unassigned)	nM	3.3

* * *

// reported Emax per item
- target_under_test: STAT6 (Homo sapiens, UniProt P42226)
- Construct: These cells express endogenous STAT6; host or cells: HeLa LgBiT clone 4.14 (CRISPR knock-in of HiBiT into the endogenous STAT6 gene)
- method_description: STAT6 Degrader Assay (HiBiT based, HeLa LgBiT clone 4.14 cells)
- Format: cell-based
- condition_set: HeLa; maximal STAT6 degradation

compound	Emax
CNc1ccn(-c2ccnc3c2cc(CN2CCC(c4c(C)cc(C(=O)N5CCN(C(=O)CN6CCN(c7ccc(NC8CCC(=O)NC8=O)cc7F)CC6)CC5)cc4F)CC2)n3C)c(=O)c1 (stereo not drawn) [Example 2g132]	40 to 50%
C[C@@H](c1cc2c(-n3ccc4c(c3=O)CCN4)ccnc2n1C)N1CCC(c2ccc(C(=O)N3CCC(CN4CCN(c5ccc(NC6CCC(=O)NC6=O)cc5F)CC4)CC3)cc2)CC1 (stereo partly drawn) [Example 2c29]	70 to 80%
C[C@@H](c1cc2c(-n3cc(F)c4c(c3=O)CCN4)ccnc2n1C)N1CC=C(c2c(F)cc(C(=O)N3CCC(CN4CCN(c5ccc(NC6CCC(=O)NC6=O)cc5F)CC4)CC3)cc2F)CC1 (stereo partly drawn) [Example 2g131]	50 to 60%

* * *

// reported DC50 per item
- target_under_test: STAT6 (Homo sapiens)
- Construct: These cells express endogenous STAT6; host or cells: HeLa LgBiT clone 4.14 (CRISPR knock-in of HiBiT into the endogenous STAT6 gene)
- method_description: STAT6 Degrader Assay (HiBiT based, HeLa LgBiT clone 4.14 cells)
- Type: cell-based
- condition_set: geometric mean across assay runs and compound batches; DC50 provided for test compounds with >80% Emax; read-out: STAT6 degradation DC50
test_readout: DC50 (nM)

compound	test_readout	reported_measurement
CNc1ccn(-c2ccnc3c2cc([C@H](C)N2CC=C(c4c(C)cc(C(=O)N5CCC(CN6CCN(c7ccc(NC8CCC(=O)NC8=O)cc7F)CC6)CC5)cc4F)CC2)n3C)c(=O)c1 (stereo partly shown) [Example 2g37]	DC50	1.8
CNc1ccn(-c2ccnc3c2cc(CN2CCC(c4c(F)cc(C(=O)N5CCn6nc(CN7CCC(c8ccc(NC9CCC(=O)NC9=O)cc8F)CC7)cc6C5)cc4F)CC2)n3C)c(=O)c1 (single isomer, unassigned) [Example 2g101]	DC50	1
CNc1ccn(-c2ccnc3c2cc([C@H](C)N2CC=C(c4c(F)cc(C(=O)N5CCC(CN6CCN(c7ccc(N[C@H]8CCC(=O)NC8=O)cc7F)CC6)CC5)cc4F)CC2)n3C)c(=O)c1 (single isomer, unassigned) [Example 2g106]	DC50	7.66
CNc1ccn(-c2ccnc3c2cc([C@H](C)N2CC=C(c4c(C)cc(C(=O)N5CCC(CN6CCN(c7ccc(N[C@H]8CCC(=O)NC8=O)c(OC)c7)CC6)CC5)cc4F)CC2)n3C)c(=O)c1 (single isomer, unassigned) [Example 2g126]	DC50	4.3
